Ref: the RNAGym collection of RNA variant scans (doi:10.1038/nmeth.2970)

B1: NELF-E aptamer (parent)
chain: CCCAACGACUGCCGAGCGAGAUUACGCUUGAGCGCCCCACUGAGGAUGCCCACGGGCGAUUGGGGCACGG

- Variants of: B1
- EXPERIMENTAL_PROTOCOL: HiTS-RAP
- RUN_CONDITIONS: with NELF-E (Drosophila)
READOUT_TYPE: pKd
Lab note: report pKd as minus log10 of the concentration in molar units, number only.

Use the examples below as a reference point.
MUTATION	READOUT_TYPE	NUMBER
A4U U41G	pKd	8.19
A5U A67U	pKd	8.14
C6U G16U	pKd	8.18
A5G G16A	pKd	8.18
C51U A52G	pKd	8.15

Reported pKd, variant C17G G55U : ____
8.12

Next record, please: G7U G30U
8.10

Next record, please: C6G G64U
8.20

Next record, please: C9U G65U
8.17
